Measured values drawn from patent US20200362047A1 for this set.

molecular target: T1, human CD137 expressed on the surface of CHO cells (human, UniProt Q07011 24-255); test: FMAT ligand inhibition, CD137 Ligand on CHO human CD137 cells
T1 construct: Also used for the Jurkat reporter cells that express human CD137 (functional rows); also called CHO human CD137 cells; CHO huCD137
T1 sequence (Q07011 24-255 limits assumed): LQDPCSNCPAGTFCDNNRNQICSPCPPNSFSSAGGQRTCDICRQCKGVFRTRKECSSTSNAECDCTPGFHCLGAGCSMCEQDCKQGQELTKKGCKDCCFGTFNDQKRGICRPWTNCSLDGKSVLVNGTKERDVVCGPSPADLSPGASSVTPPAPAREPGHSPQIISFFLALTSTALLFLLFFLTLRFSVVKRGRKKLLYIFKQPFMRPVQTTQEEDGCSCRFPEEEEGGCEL
pIC50: −log10 of the molar value.
Each entry below carries its recorded pIC50.
readout_type: pIC50

# binder, readout_type, recorded_measurement
measured = [
    ("4.1(PSMA-binding VH)-6GS-2.1 (bispecific antibody, tandem VH, PSMA x CD137; also called 4.1-6GS-2.1; not shown: His tag) EVQLVESGGGVVQPGRSLRLSCAASGFSFSGYGMHWVRQAPGKGLEWVAYISYDGSNKYYADSVKGRFTISRDNSKNTLYLQMNSLRAEDTAVYYCAKDPAWGLRLGESSSYDFDIWGQGTMVTVSSGGGGSGGGGSGGGGSGGGGSGGGGSGGGGSEVQLVESGGGLVKPGGSLRVSCAASGFTFSDYYMSWFRQAPGKGLEWVSYISGSGDIIDYADSVKGRFTISRDNAKNSLYLQMNNLRAEDTAVYHCAREDSRLTGTTDFDNWGQGTLVTVSS", "pIC50", 7.89),
    ("Humabody VH 2.49 (VHH, human single VH domain) VHH: EVQLVESGGGLVKPGGSLRLSCAASGFTFSDYYMSWIRQAPGKGLEWVSYISGSGDIIDYADSVKGRFTISRDNAKNSLYLQMNSLRAEDTAVYYCAREDPRLTGTTDFDNWGQGTLVTVSS", "pIC50", 7.38),
    ("Humabody VH 2.50 (VHH, human single VH domain) VHH: EVQLVESGGGLVKPGGSLRLSCAASGFTFSDYYMSWFRQAPGKGLEWVSYISGSGDIIDYADSVKGRFTISRDNAKNSLYLQMNSLRAEDTAVYYCAREDARLTGTTDFDNWGQGTLVTVSS", "pIC50", 7.85),
    ("Humabody VH 1.104 (VHH, human single VH domain) VHH: EVQLVESGGGLVQPGGSLRLSCAASGFTFSSHWMTWFRQAPGKGLEWVAHIKEDGSEKYYVDSVKGRFTISRDNAKNSLYLQMNSLRAEDTAVYYCARGGVGYSDSHFGVDVWGQGTTVTVSS", "pIC50", 8.96),
    ("Humabody VH 1.90 (VHH, human single VH domain) VHH: EVQLVESGGGLVQPGGSLRLSCAASGFTFSSHWMTWVRQAPGKGLEWVAHIKEDGSEKYYEDSVEGRFTVSRDNAKNSVYLQMNSLRAEDTAVYYCARGGDGYSDSHFGVDVWGQGTTVTVSS", "pIC50", 8.11),
    ("Humabody VH 2.41 (VHH, human single VH domain) VHH: EVQLVESGGGLVKPGGSLRLSCAASGFTFSDYYMSWFRQAPGKGLEWVSYISGSGDIIDYADSVKGRFTISRDNAKNSLYLQMNNLRAEDTAVYHCAREDSRLTGTTDFDNWGQGTLVTVSS", "pIC50", 7.80),
    ("Humabody VH 1.111 (VHH, human single VH domain) VHH: EVQLVESGGGLVQPGGSLRLSCAASGFTLSNYWMNWVRQAPGKGLEWVANINQDGSERYYVDSVKGRFTISRDNAKNSLYLQMSSLRAEDTAVYYCARGGEGYGVDHYGLDVSGQGTTVTVSS", "pIC50", 9.12),
    ("Humabody VH 1.96 (VHH, human single VH domain) VHH: EVQLVESGGGLVQPGGSLRLSCAASGFTFSSHWMTWFRQAPGKGLEWVAHIKEDGSEKYYVDSVKGRFTISRDNAKNSLYLQMNSLRAEDTAVYYCARGGDGYSDSHFGVDVWGQGTTVTVSS", "pIC50", 8.57),
]
